Data credit: paper PMC8960621

METHOD DESCRIPTION: UV-vis spectrophotometric titrations: proton dissociation constants of the ligands and overall stability constants of their In(III) complexes
Assay type: physicochemical
RUN CONDITIONS: In(III) complex of the ligand L, T = 25.0 °C, I = 0.20 M (KCl)
// reported logβ [InL2] for each item listed

- COMPOUND: "Cc1occc(=O)c1O [Maltol, 3-Hydroxy-2-methyl-4H-pyran-4-one]"
  logβ [InL2]: 18.78
- COMPOUND: "Oc1cccc2cccnc12 [HQ, 8-Hydroxyquinoline]"
  logβ [InL2]: 22.87
- COMPOUND: "O=S(=O)(O)c1ccc(O)c2ncccc12 [HQS, 8-Hydroyquinoline-5-sulfonate]"
  logβ [InL2]: 21.18
- COMPOUND: "Cc1c(O)c(=O)ccn1C [Deferiprone, 3-Hydroxy-1,2-dimethylpyridin-4(1H)-one]"
  logβ [InL2]: 23.88

====

// reported logβ [InL3] for each item listed
METHOD DESCRIPTION: UV-vis spectrophotometric titrations: proton dissociation constants of the ligands and overall stability constants of their In(III) complexes
Format: physicochemical
RUN CONDITIONS: In(III) complex of the ligand L, T = 25.0 °C, I = 0.20 M (KCl)

- MOLECULE: "O=S(=O)(O)c1ccc(O)c2ncccc12 [HQS, 8-Hydroyquinoline-5-sulfonate]"
  logβ [InL3]: 29.66
- MOLECULE: "Cc1occc(=O)c1O [Maltol, 3-Hydroxy-2-methyl-4H-pyran-4-one]"
  logβ [InL3]: 25.04
- MOLECULE: "Oc1cccc2cccnc12 [HQ, 8-Hydroxyquinoline]"
  logβ [InL3]: 32.64
- MOLECULE: "Cc1c(O)c(=O)ccn1C [Deferiprone, 3-Hydroxy-1,2-dimethylpyridin-4(1H)-one]"
  logβ [InL3]: 33.45

====

METHOD DESCRIPTION: pM* / pM values computed at pH 7.4 from stability constants
Format: physicochemical
RUN CONDITIONS: pH 7.4, 1 μM In(III), 10 μM ligand
// reported pIn* (−log([M] + [M(OH)(1–4)])) for each item listed
ENDPOINT NAME: pIn* (−log([M] + [M(OH)(1–4)]))

- MOLECULE: "Oc1cccc2cccnc12 [HQ, 8-Hydroxyquinoline]"
  RECORDED VALUE: 8.18
- MOLECULE: "O=S(=O)(O)c1ccc(O)c2ncccc12 [HQS, 8-Hydroyquinoline-5-sulfonate]"
  RECORDED VALUE: 7.93
- MOLECULE: "Cc1c(O)c(=O)ccn1C [Deferiprone, 3-Hydroxy-1,2-dimethylpyridin-4(1H)-one]"
  RECORDED VALUE: 7.95
- MOLECULE: "Cc1occc(=O)c1O [Maltol, 3-Hydroxy-2-methyl-4H-pyran-4-one]"
  RECORDED VALUE: 6.01
